phytotoxicity (visual assessment 0-10) values by entry
Test system: Perennial rye grass
Experiment: Turf grass selectivity, greenhouse pot test
Type: in vivo
Conditions: 100 g ai/ha, 2 weeks
Description: Turf mats of Zoysia grass, bentgrass, Kentucky bluegrass, or perennial rye grass known as cool season turfgrass or western grass were purchased and cut into a piece having 10 cm×20 cm size. Then, each piece was transplanted in a rectangular plastic pot (surface area of 300 cm^2) in which sandy loam and mixed top soil (Boo-Nong Top Soil No. 3, for horticultural use) are filled in 1:1 ratio. […]
Please give the numeric answer without any surrounding text.

Solved cases (3 shown):
[Q] Endpoint output: phytotoxicity (visual assessment 0-10) of Cc1cc(C)nc(NC(=O)NS(=O)(=O)c2ccccc2C(O)C(C)F)n1 (stereo not shown) . Value?
[A] 0

[Q] Endpoint output: phytotoxicity (visual assessment 0-10) of COc1cc(OC)nc(NC(=O)NS(=O)(=O)c2ncccc2C(F)(F)F)n1 [Control chemical No. 2, Flazasulfuron, reference compound] . Value?
[A] 10

[Q] Endpoint output: phytotoxicity (visual assessment 0-10) of CCOC(=O)c1cnn(C)c1S(=O)(=O)NC(=O)Nc1nc(OC)cc(OC)n1 [Control chemical No. 1, Pyrazosulfuron ethyl, reference compound] . Value?
[A] 0

Continuing:
[Q] Endpoint output: phytotoxicity (visual assessment 0-10) of `COc1nc(C)nc(NC(=O)NS(=O)(=O)c2cscc2C2(CF)OCCO2)n1` . Value?
[A] 10

###

system: Perennial rye grass; assay: Turf grass selectivity, greenhouse pot test; format: in vivo; settings: 6 g ai/ha, 4 weeks
phytotoxicity (visual assessment 0-10) values by entry
Please give the numeric answer without any surrounding text.

[Q] Endpoint output: phytotoxicity (visual assessment 0-10) of `COc1nc(C)nc(NC(=O)NS(=O)(=O)c2cscc2C2(CF)OCCO2)n1` . Value?
[A] 3

[Q] Endpoint output: phytotoxicity (visual assessment 0-10) of Cc1cc(C)nc(NC(=O)NS(=O)(=O)c2ccccc2C(O)C(C)F)n1 (stereo not shown) . Value?
[A] 0

[Q] Endpoint output: phytotoxicity (visual assessment 0-10) of CCOC(=O)c1cnn(C)c1S(=O)(=O)NC(=O)Nc1nc(OC)cc(OC)n1 [Control chemical No. 1, Pyrazosulfuron ethyl, reference compound] . Value?
[A] 0

[Q] Endpoint output: phytotoxicity (visual assessment 0-10) of COc1cc(OC)nc(NC(=O)NS(=O)(=O)c2ncccc2C(F)(F)F)n1 [Control chemical No. 2, Flazasulfuron, reference compound] . Value?
[A] 10

###

phytotoxicity (visual assessment 0-10) values by entry
Test system: Zoysia japonica
Assay: Turf grass selectivity, greenhouse pot test
Format: in vivo
Details: Zoysia japonica, 100 g ai/ha, 2 weeks
From the text: Turf mats of Zoysia grass, bentgrass, Kentucky bluegrass, or perennial rye grass known as cool season turfgrass or western grass were purchased and cut into a piece having 10 cm×20 cm size. Then, each piece was transplanted in a rectangular plastic pot (surface area of 300 cm^2) in which sandy loam and mixed top soil (Boo-Nong Top Soil No. 3, for horticultural use) are filled in 1:1 ratio. […]
Please give the numeric answer without any surrounding text.

Solved cases (3 shown):
[Q] Endpoint output: phytotoxicity (visual assessment 0-10) of COc1nc(C)nc(NC(=O)NS(=O)(=O)c2cscc2C2(CF)OCCO2)n1 [Example 2] . Value?
[A] 1

[Q] Endpoint output: phytotoxicity (visual assessment 0-10) of Cc1cc(C)nc(NC(=O)NS(=O)(=O)c2ccccc2C(O)C(C)F)n1 (stereo not shown) [Example 1] . Value?
[A] 0

[Q] Endpoint output: phytotoxicity (visual assessment 0-10) of COc1cc(OC)nc(NC(=O)NS(=O)(=O)c2ncccc2C(F)(F)F)n1 [Control chemical No. 2, Flazasulfuron, reference compound] . Value?
[A] 2

Please find the next compound below.
[Q] Endpoint output: phytotoxicity (visual assessment 0-10) of CCOC(=O)c1cnn(C)c1S(=O)(=O)NC(=O)Nc1nc(OC)cc(OC)n1 [Control chemical No. 1, Pyrazosulfuron ethyl, reference compound] . Value?
[A] 0
